Exercise: state measured LYMPHOCYTE for each of the compounds provided.
Species: Rattus norvegicus
Assay: DrugMatrix - Regimen: Daily Repeat
Format: toxicity, organism-based, Sprague-Dawley
Parameters: regimen Daily Repeat, gender Male, age 6-8 weeks
Conditions: in vivo, po, 0 mg/kg, 120 h, tissue Blood, route oral GAVAGE, dose level Control, time 5 day, vehicle .5 % CMC
Give just the numeric value; % need not be written.

Please report the recorded LYMPHOCYTE for COc1ccc(Cl)cc1C(=O)NCCc1ccc(S(=O)(=O)NC(=O)NC2CCCCC2)cc1 [GLYBURIDE] .
83.33

Please report the recorded LYMPHOCYTE for CCN(CC)CCNC(=O)c1cc(Cl)c(N)cc1OC [METOCLOPRAMIDE] .
88.6

Please report the recorded LYMPHOCYTE for NC(=O)CN1CCCC1=O .
88.33

Please report the recorded LYMPHOCYTE for NCC(CC(=O)O)c1ccc(Cl)cc1 (stereo unspecified) .
90.83

Please report the recorded LYMPHOCYTE for CCN1CCN(c2cc3c(cc2F)c(=O)c(C(=O)O)cn3C2CC2)CC1 .
88.6

Please report the recorded LYMPHOCYTE for CC(=O)Nc1ccc2c(c1)Cc1ccccc1-2 .
90.83

###

Species on record: Rattus norvegicus
Assay: DrugMatrix - Regimen: Daily Repeat
Format: toxicity, organism-based, Sprague-Dawley
Parameters: regimen Daily Repeat, gender Male, age 6-8 weeks
Details: in vivo, po, 0 mg/kg, 120 h, tissue Blood, route oral GAVAGE, dose level Control, time 5 day, […]
Exercise: state measured MEAN CORPUSCULAR HEMOGLOBIN CONCENTRATION for each of the compounds provided.
Give just the numeric value; G/DL need not be written.

Please report the recorded MEAN CORPUSCULAR HEMOGLOBIN CONCENTRATION for O=C(O)COC(=O)Cc1ccccc1Nc1c(Cl)cccc1Cl .
38.25

Please report the recorded MEAN CORPUSCULAR HEMOGLOBIN CONCENTRATION for CC#C[C@]1(O)CC[C@H]2[C@@H]3CCC4=CC(=O)CCC4=C3[C@@H](c3ccc(N(C)C)cc3)C[C@@]21C .
38.42

Please report the recorded MEAN CORPUSCULAR HEMOGLOBIN CONCENTRATION for CCOC(=O)C1=C(C)NC(C)=C(C(=O)OCC)C1c1ccccc1/C=C/C(=O)OC(C)(C)C .
39.08

Please report the recorded MEAN CORPUSCULAR HEMOGLOBIN CONCENTRATION for c1ccc2c(c1)Nc1ccccc1S2 .
38.95

###

Exercise: state measured CARBON DIOXIDE for each of the compounds provided.
Organism: Rattus norvegicus
Experiment: DrugMatrix - Regimen: Daily Repeat
Type: toxicity, organism-based, Sprague-Dawley
Parameters: regimen Daily Repeat, gender Male, age 6-8 weeks
Details: in vivo, po, 0 mg/kg, 120 h, tissue Plasma, route oral GAVAGE, dose level Control, time 5 day, vehicle .5 % CMC

Please report the recorded CARBON DIOXIDE for NC(=O)NC(=O)Cc1ccccc1 [PHENACEMIDE] .
27.67 mmol/L

Please report the recorded CARBON DIOXIDE for CC(=O)Nc1ccc2c(c1)Cc1ccccc1-2 .
27.67 mmol/L

Please report the recorded CARBON DIOXIDE for NCC(CC(=O)O)c1ccc(Cl)cc1 (configuration not stated) .
27.67 mmol/L

Please report the recorded CARBON DIOXIDE for CN(C)CCOC(c1ccccc1)c1ccccc1.Cn1c(=O)c2[nH]c(Cl)nc2n(C)c1=O [DIMENHYDRINATE] .
27.17 mmol/L

Please report the recorded CARBON DIOXIDE for CC(C)(C#N)c1cc(Cn2cncn2)cc(C(C)(C)C#N)c1 .
30.17 mmol/L

Please report the recorded CARBON DIOXIDE for CCOc1cc(N)c(Cl)cc1C(=O)NCC1CN(Cc2ccc(F)cc2)CCO1 (configuration not stated) [MOSAPRIDE] .
27.67 mmol/L

Please report the recorded CARBON DIOXIDE for NC(=O)CN1CCCC1=O .
28.33 mmol/L

Please report the recorded CARBON DIOXIDE for Cc1cc2c(s1)Nc1ccccc1N=C2N1CCN(C)CC1 .
29.17 mmol/L

Please report the recorded CARBON DIOXIDE for O=C(O)CCc1nc(-c2ccccc2)c(-c2ccccc2)o1 .
30.33 mmol/L

Please report the recorded CARBON DIOXIDE for COc1cc(/C=C/C(=O)O)ccc1O [FERULATE] .
28.67 mmol/L

Please report the recorded CARBON DIOXIDE for CCN1CCCC1CNC(=O)c1cc(S(N)(=O)=O)ccc1OC (configuration not stated) [SULPIRIDE] .
30.33 mmol/L

Please report the recorded CARBON DIOXIDE for Cl.NC[C@H]1CC[C@H](C(=O)Oc2ccc(CCC(=O)O)cc2)CC1 [CETRAXATE HYDROCHLORIDE] .
28.67 mmol/L

Just for reference, ChEMBL document CHEMBL3885881 is where these values come from.
